details: buffer; pH 7.4; 200.0 µM
Field: solubility kinetic. Provide a value for each of the compounds that follow.

Inquiry: What value of solubility kinetic has been reported for the following compound? `O=C(NC1CC1)c1cc(=S)[nH]c2ccccc12`
Reply text: > 36.6 µg/mL

Inquiry: What value of solubility kinetic has been reported for the following compound? `COCCCn1c(=S)[nH]c(C)c(C)c1=O`
Reply text: > 34.2 µg/mL

Inquiry: What value of solubility kinetic has been reported for the following compound? `CSc1nc(-c2ccc(Cl)cc2)c(C#N)c(=O)n1C`
Reply text: < 0.2 µg/mL

Inquiry: What value of solubility kinetic has been reported for the following compound? `O=[N+]([O-])c1cncc([N+](=O)[O-])c1Nc1cccc(O)c1`
Reply text: > 41.4 µg/mL

Inquiry: What value of solubility kinetic has been reported for the following compound? COC(=O)NC(C)N1C(=O)C2C3C=CC(C3)C2C1=O (centres undefined)
Reply text: > 39.6 µg/mL

Inquiry: What value of solubility kinetic has been reported for the following compound? COc1ccc(C(CCNCc2ccc(OC)c(OC)c2)c2ccc(F)cc2)cc1 (centres undefined)
Reply text: > 61.4 µg/mL

Inquiry: What value of solubility kinetic has been reported for the following compound? CCOC(=O)C(Cc1ccccc1)C(=O)NCc1cccnc1 (centres undefined)
Reply text: > 46.9 µg/mL

Inquiry: What value of solubility kinetic has been reported for the following compound? `O=C(NCCNC(=O)c1ccccn1)c1ccc(F)cc1`
Reply text: > 43.1 µg/mL

Inquiry: What value of solubility kinetic has been reported for the following compound? CN(C)N1C(=O)CC(N2CCCCC2)C1=O (centres undefined)
Reply text: > 33.8 µg/mL

Reference source: PubChem BioAssay AID1996
